Origin of measurements: ChEMBL document CHEMBL5236653

# IC50 per record follows
- EXPERIMENTAL TARGET: Acetylcholinesterase (Homo sapiens, UniProt P22303)
- Sequence (P22303 whole entry): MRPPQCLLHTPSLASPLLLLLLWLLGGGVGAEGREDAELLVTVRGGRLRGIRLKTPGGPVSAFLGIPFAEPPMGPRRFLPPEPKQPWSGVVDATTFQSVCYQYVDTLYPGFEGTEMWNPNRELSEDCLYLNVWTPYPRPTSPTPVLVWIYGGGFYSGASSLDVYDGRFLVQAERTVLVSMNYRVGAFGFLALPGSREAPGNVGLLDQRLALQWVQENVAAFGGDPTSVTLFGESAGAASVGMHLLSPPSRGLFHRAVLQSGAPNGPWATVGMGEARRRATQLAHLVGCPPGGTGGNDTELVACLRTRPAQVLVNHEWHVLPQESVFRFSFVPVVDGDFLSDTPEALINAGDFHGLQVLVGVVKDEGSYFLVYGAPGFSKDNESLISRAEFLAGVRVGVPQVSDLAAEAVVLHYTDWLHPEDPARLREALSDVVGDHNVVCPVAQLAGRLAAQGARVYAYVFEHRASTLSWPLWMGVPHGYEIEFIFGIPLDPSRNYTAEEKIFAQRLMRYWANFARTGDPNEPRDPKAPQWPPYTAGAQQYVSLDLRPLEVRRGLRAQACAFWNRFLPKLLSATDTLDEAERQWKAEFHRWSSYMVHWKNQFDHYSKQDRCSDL
- EXPERIMENT SUMMARY: Inhibition of human erythrocyte AChE using ATCI and BTCI as substrate preincubated for 5 mins followed by substrate addition and measured after 3 mins by DTNB-reagent based Ellman's method
OBSERVED PROPERTY: IC50 (µM)

# STRUCTURE STRING, EXPERIMENTAL TARGET, READOUT UNIT, ASSAY VALUE
records = [
    ("COc1ccc2c(c1)c(C=O)cn2CCCCCCCCCCN(C)Cc1ccc(O)cc1", "Acetylcholinesterase (Homo sapiens, UniProt P22303)", "µM", 0.6),
    ("COc1ccc2c(c1)c(C=O)cn2CCCCCCCCN(C)Cc1ccc(O)cc1", "Acetylcholinesterase (Homo sapiens, UniProt P22303)", "µM", 2.06),
    ("COc1ccc2c(c1)c(C=O)cn2CCCCCCCN(C)Cc1ccc(O)cc1", "Acetylcholinesterase (Homo sapiens, UniProt P22303)", "µM", 1.61),
    ("COc1ccc2c(c1)c(C=O)cn2CCCCCCCCCCCCN(C)Cc1cccc(O)c1", "Acetylcholinesterase (Homo sapiens, UniProt P22303)", "µM", 76.5),
    ("COc1ccc2c(c1)c(C=O)cn2CCCCCCCCCN(C)Cc1ccc(O)cc1", "Acetylcholinesterase (Homo sapiens, UniProt P22303)", "µM", 6.23),
    ("COc1ccc2c(c1)c(C=O)cn2CCCCCCCCCCN(C)Cc1cccc(O)c1", "Acetylcholinesterase (Homo sapiens, UniProt P22303)", "µM", 4.52),
    ("COc1ccc2c(c1)c(C=O)cn2CCCCCCCN(C)Cc1cccc(O)c1", "Acetylcholinesterase (Homo sapiens, UniProt P22303)", "µM", 5.54),
    ("CN(CCCCCCCCCCCCn1cc(C=O)c2cc(O)ccc21)Cc1cccc(O)c1", "Acetylcholinesterase (Homo sapiens, UniProt P22303)", "µM", 177),
    ("CCN(CCCCCCCCCCCCn1cc(C=O)c2cc(OC)ccc21)Cc1cccc(O)c1", "Acetylcholinesterase (Homo sapiens, UniProt P22303)", "µM", 42.5),
    ("COc1ccc2c(c1)c(C=O)cn2CCCCCCCCCCCCN(C)Cc1ccc(O)cc1", "Acetylcholinesterase (Homo sapiens, UniProt P22303)", "µM", 60.6),
    ("COc1ccc2c(c1)c(C=O)cn2CCCCCCCCN(C)Cc1cccc(O)c1", "Acetylcholinesterase (Homo sapiens, UniProt P22303)", "µM", 2.6),
    ("COc1ccc2c(c1)c(C=O)cn2CCCCCCCCCN(C)Cc1cccc(O)c1", "Acetylcholinesterase (Homo sapiens, UniProt P22303)", "µM", 5.19),
]

---

- EXPERIMENTAL TARGET: Cholinesterase (Homo sapiens, UniProt P06276)
- Sequence (P06276 whole entry): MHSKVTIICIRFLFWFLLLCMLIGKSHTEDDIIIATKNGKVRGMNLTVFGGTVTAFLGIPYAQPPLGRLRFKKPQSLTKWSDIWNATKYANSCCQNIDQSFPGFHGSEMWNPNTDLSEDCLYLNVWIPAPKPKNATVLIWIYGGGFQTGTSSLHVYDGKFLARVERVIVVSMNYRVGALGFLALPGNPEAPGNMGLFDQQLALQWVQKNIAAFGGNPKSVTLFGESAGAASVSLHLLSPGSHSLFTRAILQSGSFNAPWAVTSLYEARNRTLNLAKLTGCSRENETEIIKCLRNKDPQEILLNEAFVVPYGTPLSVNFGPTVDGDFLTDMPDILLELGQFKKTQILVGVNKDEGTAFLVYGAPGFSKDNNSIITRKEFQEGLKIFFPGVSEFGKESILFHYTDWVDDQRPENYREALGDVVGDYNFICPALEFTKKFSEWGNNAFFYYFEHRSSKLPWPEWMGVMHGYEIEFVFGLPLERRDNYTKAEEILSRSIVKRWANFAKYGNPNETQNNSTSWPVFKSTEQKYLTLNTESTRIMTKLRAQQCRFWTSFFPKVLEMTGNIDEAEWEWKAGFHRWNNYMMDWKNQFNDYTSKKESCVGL
OBSERVED PROPERTY: Ki (µM)

# STRUCTURE STRING, READOUT UNIT, ASSAY VALUE
rows = [
    ("CN(CCCCCCCCCCCCn1cc(C=O)c2cc(O)ccc21)Cc1cccc(O)c1", "µM", 1.77),
]

---

Parameter: Papp at 18 h. Scope: all listed entries.
- EXPERIMENT SUMMARY: in vitro
- TEST CONDITIONS: PAMPA
- Description: Permeability coefficient of the compound across blood brain barrier incubated for 18 hrs by PAMPA assay

# STRUCTURE STRING, Papp at 18 h
records = [
    ("CN(CCCCCCCCCCCCn1cc(C=O)c2cc(O)ccc21)Cc1cccc(O)c1", "9.98 ×10⁻⁶ cm/s"),
    ("CCN(CCCCCCCCCCCCn1cc(C=O)c2cc(OC)ccc21)Cc1cccc(O)c1", "8.18 ×10⁻⁶ cm/s"),
    ("COc1ccc2c(c1)c(C=O)cn2CCCCCCCCCCN(C)Cc1ccc(O)cc1", "5.46 ×10⁻⁶ cm/s"),
    ("COc1ccc(CN(C)CCCCCCCCCCCCn2cc(C=O)c3cc(OC)ccc32)cc1", "4.09 ×10⁻⁶ cm/s"),
    ("COc1ccc2c(c1)c(C=O)cn2CCCCCCCCN(C)Cc1ccc(O)cc1", "4.62 ×10⁻⁶ cm/s"),
    ("COc1cccc(CN(C)CCCCCCCCCCCCn2cc(C=O)c3cc(OC)ccc32)c1", "1.82 ×10⁻⁶ cm/s"),
    ("C[C@]12CC[C@@H]3c4ccc(O)cc4CC[C@H]3[C@@H]1CC[C@@H]2O", "14.1 ×10⁻⁶ cm/s"),
    ("COc1ccc2c(c1)c(C=O)cn2CCCCCCCCCCN(C)Cc1cccc(O)c1", "5.76 ×10⁻⁶ cm/s"),
    ("COc1ccc2c(c1)c(C=O)cn2CCCCCCCN(C)Cc1ccc(O)cc1", "4.19 ×10⁻⁶ cm/s"),
    ("COc1ccc2c(c1)c(C=O)cn2CCCN(C)Cc1ccc(O)cc1", "5.69 ×10⁻⁶ cm/s"),
]
